metric: melting point (°C)

# compound, metric, unit.name, assay.value
data = [
    ("CC(=O)OC1CCC2C3CCC4=CC(O)CCC4(C)C3CCC12C (stereo not given)", "melting point", "°C", 96),
    ("CC(C)S(=O)(=O)O", "melting point", "°C", -37),
    ("CC1C(c2ccccc2)=Cc2ccccc21 (stereo not given)", "melting point", "°C", 58),
]

A. CC12CCC(C(=O)O)(OC1=O)C2(C)C (stereo not given)
B. CC(=O)C(N=Nc1ccccc1)C(C)=O
C. Nc1cccc2c1C(=O)c1cccc(N)c1C2=O
Query: Please list these compounds in decreasing order of melting point. Sort the labels as requested; that list is your answer.
Result: C, A, B
(C: 319 °C, A: 200 °C, B: 87 °C)

###

melting point values by entry

These solved cases illustrate the format of a correct answer.
# molecule, melting point
data = [
    ("C1CCC2OCCOCCOC3CCCCC3OCCOCCOC2C1 (configuration not stated)", "66 to 70 °C"),
    ("OC12Cc3ccccc3C(O)(Cc3ccccc31)O2", "160 to 167 °C"),
    ("Nc1ccc(N2CCOCC2)c(Cl)c1", "102 to 104 °C"),
    ("CC(=CCNc1ncnc2c1ncn2C1OC(CO)C(O)C1O)CO (configuration not stated)", "179 to 180 °C"),
    ("COc1ccc(Cl)c(Cl)c1", "-8 °C"),
]

Entry under test: C#CCN1C(=O)CN=C(c2ccccc2)c2cc(Cl)ccc21 . Its melting point was 141 °C

melting point measured on CC(C)(C)OC(=O)NCCC(N)=S = 109 to 112 °C

###

metric: melting point (°C)

# compound, assay.value
records = [
    ("CCc1ccc(NC(N)=S)cc1", 138),
    ("Clc1ccc2c(c1)Oc1ccc(Cl)cc1O2", 202),
    ("Cc1cc(C(F)(F)F)n2nc(N)c(/N=N/c3ccccc3Cl)c2n1", 238),
    ("COc1cccc(N)c1C(=O)O", 85),
    ("CC(=O)OCC12CC(OC(=O)CC(C)C)C(C)=CC1OC1C(O)C(OC(C)=O)C2(C)C12CO2 (centres undefined)", 152),
]

P. O=C(O)CNCC(=O)O
Q. Cc1ccc(-c2cc(NN=c3c(C)nc4ccccc4[nH]c3=O)[nH]n2)cc1
R. Cc1ccc(Cl)cc1O
S. OCc1cccc(OCc2ccccc2)c1
Query: Rank order required: melting point, descending. Rank them, then answer with their labels in that order.
Result: P, Q, R, S
(P: 248 °C, Q: 168 °C, R: 73 °C, S: 49 °C)

###

metric: melting point (°C)

Sample answers from the record:
# compound, melting point / °C
rows = [
    ("CC(=O)C(C(C)=O)=C1SCCCS1", 91),
    ("Cc1ccc([Si](C)(Cl)Cl)cc1", 57),
    ("c1ccc2cc(Nc3ccc4ccccc4c3)ccc2c1", 172),
    ("CC(=O)Nc1ccc(N=Nc2cc(C(C)C)c(N=Nc3ccc(NC(C)=O)cc3)cc2C)cc1", 284),
    ("CCc1ssc(=O)c1-c1ccccc1", 82),
    ("O=[N+]([O-])c1ccc(CCO)cc1", 63),
]

A. Sc1ncccn1
B. CC(C)=NNc1ccccc1
C. CN(C)CCCN
D. CCOC(=O)C1C(c2ccc(OC)cc2)C(C(=O)OCC)C(O)(C(F)(F)F)NC1(O)C(F)(F)F (stereo unspecified)
Query: # desc sort on melting point across 4 compounds Labels, ranked as asked.
Result: A, D, B, C

P. COc1ccc(-c2nnc3n2NC(c2ccccc2O)S3)cc1 (stereo unspecified)
Q. CCCc1cc(C)cc(C)c1
Query: // pick larger melting point from pair: P vs Q Selection: enter the item's label.
Result: P

a. NC(CCCC(N)C(=O)O)C(=O)O (stereo unspecified)
b. Cc1ccc(C(c2ccc(C)o2)c2ccccc2O)o1
Query: For this pair, a and b , which shows a numerically higher melting point? Please identify the chosen entry by its label.
Result: a

P. CC(C)(C)C(=O)C(=O)O
Q. Oc1cc(C(F)(F)F)nc2cc(Cl)cc(Cl)c12
Query: Which record shows the lower melting point: the first, P , or the second, Q ? Kindly state the label of the option you pick.
Result: P

Values from a melting point compilation (Tetko et al.)
